Target: Cin5 (UniProt P40917)
Sequence: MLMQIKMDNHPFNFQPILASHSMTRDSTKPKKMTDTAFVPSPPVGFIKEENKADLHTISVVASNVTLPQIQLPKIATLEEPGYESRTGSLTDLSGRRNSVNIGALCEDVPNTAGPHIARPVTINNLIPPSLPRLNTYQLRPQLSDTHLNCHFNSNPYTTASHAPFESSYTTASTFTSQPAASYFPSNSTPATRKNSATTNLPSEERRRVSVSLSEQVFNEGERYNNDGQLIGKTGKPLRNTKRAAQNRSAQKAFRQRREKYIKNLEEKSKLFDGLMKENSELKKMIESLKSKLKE
Assay: PBM E-score (8-mer binding enrichment) (E-score (-0.5 to 0.5)); higher = stronger / more preferred TF binding
Conditions: protein concentration: 100 nM; construct: GST-full length
Over roughly 33,000 sequences, “E-score (-0.5 to 0.5)” has its median near -0.0059; the highest 2% begin near 0.26. Shown is part of a subset that was picked to be rich in the highest values.
Entries and their measured PBM E-score follow.
Just the number, please, no unit after it.

Below are worked cases with known answers.
- chain: "AAGTTGTC"
  assayedTarget: "Cin5 (UniProt P40917)"
  PBM E-score: 0.127
- chain: "CCGGAACA"
  assayedTarget: "Cin5 (UniProt P40917)"
  PBM E-score: 0.145
- chain: "GCATAATA"
  assayedTarget: "Cin5 (UniProt P40917)"
  PBM E-score: 0.235
- chain: "ACTTCATC"
  assayedTarget: "Cin5 (UniProt P40917)"
  PBM E-score: -0.0118
- chain: "CGGGTGTC"
  assayedTarget: "Cin5 (UniProt P40917)"
  PBM E-score: -0.00474
- chain: "CGGTAATA"
  assayedTarget: "Cin5 (UniProt P40917)"
  PBM E-score: 0.181

Continue with the sequence presented below.
Any idea what its PBM E-score is? The sequence is GGGGCACC
-0.367

###

Molecular target: Cin5 (UniProt P40917)
Sequence: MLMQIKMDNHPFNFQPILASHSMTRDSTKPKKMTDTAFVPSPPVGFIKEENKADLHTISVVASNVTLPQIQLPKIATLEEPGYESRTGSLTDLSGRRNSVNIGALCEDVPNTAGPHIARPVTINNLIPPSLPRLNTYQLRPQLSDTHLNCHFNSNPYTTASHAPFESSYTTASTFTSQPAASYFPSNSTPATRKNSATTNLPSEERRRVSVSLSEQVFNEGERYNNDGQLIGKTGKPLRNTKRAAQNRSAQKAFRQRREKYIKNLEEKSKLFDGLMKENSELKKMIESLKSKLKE
Assay: PBM E-score (8-mer binding enrichment) (E-score (-0.5 to 0.5)); higher = stronger / more preferred TF binding
Conditions: protein concentration: 100 nM; construct: GST-full length
In all, about 33,000 sequences were measured (“E-score (-0.5 to 0.5)”: median about -0.0059, highest 2% from about 0.26 on). The sample holds the highest values, similar sequences and a random draw of the others, so the mix is not that of the screen.
Rule: PBM E-score under 0.1 gives Not met, otherwise Met.

Solved entries (count: 4):
- chain: "ATTACATA"
  labelClass: "Met"
- chain: "ACAATACA"
  labelClass: "Met"
- chain: "CCGAATGA"
  labelClass: "Not met"
- chain: "CGTAATCC"
  labelClass: "Met"

Dear colleague, could you confirm whether CGTAAGGC has PBM E-score at or above 0.1?
Not met

Check ACTCGCGA too.
Met
